Molecular target: T1, native IHFNTHI (integration host factor of nontypeable Haemophilus influenzae) (nontypeable Haemophilus influenzae …, UniProt P43723 1-96; P43724 1-94)
T1 construct: also called NTHI IHF
T1 sequence 1: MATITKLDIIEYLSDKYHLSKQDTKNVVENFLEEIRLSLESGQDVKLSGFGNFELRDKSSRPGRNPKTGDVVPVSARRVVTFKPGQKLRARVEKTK
T1 sequence 2: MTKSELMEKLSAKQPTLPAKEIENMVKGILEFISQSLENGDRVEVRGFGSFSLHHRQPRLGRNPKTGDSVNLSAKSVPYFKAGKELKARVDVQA
Assay: SPR Biacore 3000, IHFNTHI immobilized, HuMab as analyte
measuredParameter: pKd
Answers are plain numbers, as −log10 of the molar value.

As a guide, the following entries are already answered.
INSERT INTO results (binder, measuredparameter, endpointresult) VALUES
  ('humanized anti-tip monoclonal antibody, heavy chain SEQ ID NO: 1 and light chain SEQ ID NO: 9 (antibody, V domains shown, also called H10210 (1F8.F1 Humanized HC1) + L10212 (1F8.F1 Humanized LC3)) VH: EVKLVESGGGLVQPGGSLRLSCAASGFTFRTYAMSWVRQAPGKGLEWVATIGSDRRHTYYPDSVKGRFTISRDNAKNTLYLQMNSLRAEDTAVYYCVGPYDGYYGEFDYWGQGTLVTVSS VL: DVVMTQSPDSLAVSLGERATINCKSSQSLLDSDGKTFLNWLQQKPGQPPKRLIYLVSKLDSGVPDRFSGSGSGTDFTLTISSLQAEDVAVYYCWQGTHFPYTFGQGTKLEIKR', 'pKd', 7.62),
  ('humanized anti-tip monoclonal antibody, heavy chain SEQ ID NO: 2 and light chain SEQ ID NO: 7 (antibody, V domains shown, also called H10211 (1F8.F1 Humanized HC2) + L10210 (1F8.F1 Humanized LC1)) VH: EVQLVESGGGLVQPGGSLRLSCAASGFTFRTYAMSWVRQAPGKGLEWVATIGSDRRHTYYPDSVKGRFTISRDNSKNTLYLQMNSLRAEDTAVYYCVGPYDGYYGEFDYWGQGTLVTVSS VL: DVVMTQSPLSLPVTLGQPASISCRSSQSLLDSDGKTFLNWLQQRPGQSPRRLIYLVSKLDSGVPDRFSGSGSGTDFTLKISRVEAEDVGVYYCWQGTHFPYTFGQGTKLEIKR', 'pKd', 5.36);

Request: Please give the measured pKd for this binder: humanized anti-tip monoclonal antibody, heavy chain SEQ ID NO: 3 and light chain SEQ ID NO: 7 (antibody, V domains shown, also called H10212 (1F8.F1 Humanized HC3) + L10210 (1F8.F1 Humanized LC1)) VH: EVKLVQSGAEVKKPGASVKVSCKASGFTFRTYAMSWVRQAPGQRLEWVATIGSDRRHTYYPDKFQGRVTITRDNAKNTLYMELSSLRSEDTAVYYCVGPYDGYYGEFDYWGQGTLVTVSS VL: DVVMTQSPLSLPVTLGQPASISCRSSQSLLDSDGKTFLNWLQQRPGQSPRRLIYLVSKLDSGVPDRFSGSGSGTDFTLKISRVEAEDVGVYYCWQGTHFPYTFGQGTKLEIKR
Result: 6.08
